# Substrate: O=C(O)C(=O)CC(O)C(=O)O
# Test summary: purified protein
# Type: biochemical, Homo sapiens
# Conditions used: racemic HOG, 100 mM TRIS pH 8.5, 37°C, aldol cleavage
Metric: kcat/Km (M⁻¹ s⁻¹)
# unit: M⁻¹ s⁻¹ | format: bare number

Exercise: Quick check: kcat/Km of human HOGA (hHOGA) (Homo sapiens; S198T) (protein, His-tag (WT, Y140F) cleavable by PreScission leaving GPH, 33,097 Da tag-free; S77, N78 and S198 mutants as MBP fusion, MBP cleaved; tetramer) ASGEGKKVDIAGIYPPVTTPFTATAEVDYGKLEENLHKLGTFPFRGFVVQGSNGEFPFLTSSERLEVVSRVRQAMPKNRLLLAGSGCESTQATVEMTVSMAQVGADAAMVVTPCYYRGRMSSAALIHHYTKVADLSPIPVVLYSVPANTGLDLPVDAVVTLSQHPNIVGMKDTGGDVTRIGLIVHKTRKQDFQVLAGSAGFLMASYALGAVGGVCALANVLGAQVCQLERLCCTGQWEDAQKLQHRLIEPNAAVTRRFGIPGLKKIMDWFGYYGGPCRAPLQELSPAEEEALRMDFTSNGWL ?
Solution: 101000

Exercise: Quick check: kcat/Km of human HOGA (hHOGA) (Homo sapiens; S77A) (protein, His-tag (WT, Y140F) cleavable by PreScission leaving GPH, 33,097 Da tag-free; S77, N78 and S198 mutants as MBP fusion, MBP cleaved; tetramer) ASGEGKKVDIAGIYPPVTTPFTATAEVDYGKLEENLHKLGTFPFRGFVVQGANGEFPFLTSSERLEVVSRVRQAMPKNRLLLAGSGCESTQATVEMTVSMAQVGADAAMVVTPCYYRGRMSSAALIHHYTKVADLSPIPVVLYSVPANTGLDLPVDAVVTLSQHPNIVGMKDSGGDVTRIGLIVHKTRKQDFQVLAGSAGFLMASYALGAVGGVCALANVLGAQVCQLERLCCTGQWEDAQKLQHRLIEPNAAVTRRFGIPGLKKIMDWFGYYGGPCRAPLQELSPAEEEALRMDFTSNGWL ?
Solution: 30000

Exercise: Quick check: kcat/Km of human HOGA (hHOGA) (Homo sapiens; S198A) (protein, His-tag (WT, Y140F) cleavable by PreScission leaving GPH, 33,097 Da tag-free; S77, N78 and S198 mutants as MBP fusion, MBP cleaved; tetramer) ASGEGKKVDIAGIYPPVTTPFTATAEVDYGKLEENLHKLGTFPFRGFVVQGSNGEFPFLTSSERLEVVSRVRQAMPKNRLLLAGSGCESTQATVEMTVSMAQVGADAAMVVTPCYYRGRMSSAALIHHYTKVADLSPIPVVLYSVPANTGLDLPVDAVVTLSQHPNIVGMKDAGGDVTRIGLIVHKTRKQDFQVLAGSAGFLMASYALGAVGGVCALANVLGAQVCQLERLCCTGQWEDAQKLQHRLIEPNAAVTRRFGIPGLKKIMDWFGYYGGPCRAPLQELSPAEEEALRMDFTSNGWL ?
Solution: 55000

Exercise: Quick check: kcat/Km of human HOGA (hHOGA) (Homo sapiens; N78Q) (protein, His-tag (WT, Y140F) cleavable by PreScission leaving GPH, 33,097 Da tag-free; S77, N78 and S198 mutants as MBP fusion, MBP cleaved; tetramer) ASGEGKKVDIAGIYPPVTTPFTATAEVDYGKLEENLHKLGTFPFRGFVVQGSQGEFPFLTSSERLEVVSRVRQAMPKNRLLLAGSGCESTQATVEMTVSMAQVGADAAMVVTPCYYRGRMSSAALIHHYTKVADLSPIPVVLYSVPANTGLDLPVDAVVTLSQHPNIVGMKDSGGDVTRIGLIVHKTRKQDFQVLAGSAGFLMASYALGAVGGVCALANVLGAQVCQLERLCCTGQWEDAQKLQHRLIEPNAAVTRRFGIPGLKKIMDWFGYYGGPCRAPLQELSPAEEEALRMDFTSNGWL ?
Solution: 22000

Exercise: Quick check: kcat/Km of human HOGA (hHOGA) (Homo sapiens; S77V) (protein, His-tag (WT, Y140F) cleavable by PreScission leaving GPH, 33,097 Da tag-free; S77, N78 and S198 mutants as MBP fusion, MBP cleaved; tetramer) ASGEGKKVDIAGIYPPVTTPFTATAEVDYGKLEENLHKLGTFPFRGFVVQGVNGEFPFLTSSERLEVVSRVRQAMPKNRLLLAGSGCESTQATVEMTVSMAQVGADAAMVVTPCYYRGRMSSAALIHHYTKVADLSPIPVVLYSVPANTGLDLPVDAVVTLSQHPNIVGMKDSGGDVTRIGLIVHKTRKQDFQVLAGSAGFLMASYALGAVGGVCALANVLGAQVCQLERLCCTGQWEDAQKLQHRLIEPNAAVTRRFGIPGLKKIMDWFGYYGGPCRAPLQELSPAEEEALRMDFTSNGWL ?
Solution: 15000

Exercise: Quick check: kcat/Km of human HOGA (hHOGA) (Homo sapiens; S77T) (protein, His-tag (WT, Y140F) cleavable by PreScission leaving GPH, 33,097 Da tag-free; S77, N78 and S198 mutants as MBP fusion, MBP cleaved; tetramer) ASGEGKKVDIAGIYPPVTTPFTATAEVDYGKLEENLHKLGTFPFRGFVVQGTNGEFPFLTSSERLEVVSRVRQAMPKNRLLLAGSGCESTQATVEMTVSMAQVGADAAMVVTPCYYRGRMSSAALIHHYTKVADLSPIPVVLYSVPANTGLDLPVDAVVTLSQHPNIVGMKDSGGDVTRIGLIVHKTRKQDFQVLAGSAGFLMASYALGAVGGVCALANVLGAQVCQLERLCCTGQWEDAQKLQHRLIEPNAAVTRRFGIPGLKKIMDWFGYYGGPCRAPLQELSPAEEEALRMDFTSNGWL ?
Solution: 14000

Exercise: Quick check: kcat/Km of human HOGA (hHOGA) (Homo sapiens; N78T) (protein, His-tag (WT, Y140F) cleavable by PreScission leaving GPH, 33,097 Da tag-free; S77, N78 and S198 mutants as MBP fusion, MBP cleaved; tetramer) ASGEGKKVDIAGIYPPVTTPFTATAEVDYGKLEENLHKLGTFPFRGFVVQGSTGEFPFLTSSERLEVVSRVRQAMPKNRLLLAGSGCESTQATVEMTVSMAQVGADAAMVVTPCYYRGRMSSAALIHHYTKVADLSPIPVVLYSVPANTGLDLPVDAVVTLSQHPNIVGMKDSGGDVTRIGLIVHKTRKQDFQVLAGSAGFLMASYALGAVGGVCALANVLGAQVCQLERLCCTGQWEDAQKLQHRLIEPNAAVTRRFGIPGLKKIMDWFGYYGGPCRAPLQELSPAEEEALRMDFTSNGWL ?
Solution: 250000

Exercise: Quick check: kcat/Km of human HOGA (hHOGA) (Homo sapiens; N78A) (protein, His-tag (WT, Y140F) cleavable by PreScission leaving GPH, 33,097 Da tag-free; S77, N78 and S198 mutants as MBP fusion, MBP cleaved; tetramer) ASGEGKKVDIAGIYPPVTTPFTATAEVDYGKLEENLHKLGTFPFRGFVVQGSAGEFPFLTSSERLEVVSRVRQAMPKNRLLLAGSGCESTQATVEMTVSMAQVGADAAMVVTPCYYRGRMSSAALIHHYTKVADLSPIPVVLYSVPANTGLDLPVDAVVTLSQHPNIVGMKDSGGDVTRIGLIVHKTRKQDFQVLAGSAGFLMASYALGAVGGVCALANVLGAQVCQLERLCCTGQWEDAQKLQHRLIEPNAAVTRRFGIPGLKKIMDWFGYYGGPCRAPLQELSPAEEEALRMDFTSNGWL ?
Solution: 115000

Exercise: Quick check: kcat/Km of human HOGA (hHOGA) (Homo sapiens) (protein, His-tag (WT, Y140F) cleavable by PreScission leaving GPH, 33,097 Da tag-free; S77, N78 and S198 mutants as MBP fusion, MBP cleaved; tetramer) ASGEGKKVDIAGIYPPVTTPFTATAEVDYGKLEENLHKLGTFPFRGFVVQGSNGEFPFLTSSERLEVVSRVRQAMPKNRLLLAGSGCESTQATVEMTVSMAQVGADAAMVVTPCYYRGRMSSAALIHHYTKVADLSPIPVVLYSVPANTGLDLPVDAVVTLSQHPNIVGMKDSGGDVTRIGLIVHKTRKQDFQVLAGSAGFLMASYALGAVGGVCALANVLGAQVCQLERLCCTGQWEDAQKLQHRLIEPNAAVTRRFGIPGLKKIMDWFGYYGGPCRAPLQELSPAEEEALRMDFTSNGWL ?
Solution: 555000
